assay: ATP-PPi exchange assay (amino acid activation); format: biochemical; settings: nsAA pAzF
result type: Km (µM)
Numbers only, in µM.

INPUT: Request the reported Km associated with pAcFRS.1.t1: pAcFRS variant A167D, R257G, SEQ ID NO: 5 (protein) MDEFEMIKRNTSEIISEEELREVLKKDEKSALIGFEPSGKIHLGHYLQIKKMIDLQNAGFDIIILLADLHAYLNQKGELDEIRKIGDYNKKVFEAMGLKAKYVYGSEFQLDKDYTLNVYRLALKTTLKRARRSMELIAREDENPKVAEVIYPIMQVNGCHYRGVDVDVGGMEQRKIHMLARELLPKKVVCIHNPVLTGLDGEGKMSSSKGNFIAVDDSPEEIRAKIKKAYCPAGVVEGNPIMEIAKYFLEYPLTIKGPEKFGGDLTVNSYEELESLFKNKELHPMRLKNAVAEELIKILEPIRKRL
OUTPUT: 1490
